# system.name: Bleomycin hydrolase (Homo sapiens, UniProt Q13867)
# Sequence (Q13867 whole entry): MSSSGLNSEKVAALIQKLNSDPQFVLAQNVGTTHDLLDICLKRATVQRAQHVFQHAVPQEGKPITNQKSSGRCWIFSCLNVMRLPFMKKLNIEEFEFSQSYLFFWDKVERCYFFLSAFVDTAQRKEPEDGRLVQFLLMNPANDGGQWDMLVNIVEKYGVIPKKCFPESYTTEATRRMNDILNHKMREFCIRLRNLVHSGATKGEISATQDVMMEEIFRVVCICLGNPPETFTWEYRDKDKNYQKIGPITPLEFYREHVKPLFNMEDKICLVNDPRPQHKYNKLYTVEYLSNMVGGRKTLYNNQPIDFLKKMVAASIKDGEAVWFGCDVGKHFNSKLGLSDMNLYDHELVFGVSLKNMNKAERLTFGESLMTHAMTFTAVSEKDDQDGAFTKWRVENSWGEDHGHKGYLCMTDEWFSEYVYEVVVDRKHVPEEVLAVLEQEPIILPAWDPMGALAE
# test.protocol: Substrate activity at recombinant human N-terminal His6-tagged BLMH expressed in Escherichia coli BL21(DE3) assessed as Kcat to Km ratio measured after 1 hr by HPLC-based Michaelis-Menten plot analysis relative to BLM B2
# Assay type: ADME

| smiles.structure | fold change (FC) |
| --- | --- |
| Cc1c(N)nc([C@H](CC(N)=O)NC[C@H](N)C(N)=O)nc1C(=O)N[C@H](C(=O)N[C@H](C)[C@@H](O)[C@H](C)C(=O)N[C@H](C(=O)NCCc1nc(-c2nc(C(=O)NCCC[S+](C)C)cs2)cs1)[C@@H](C)O)[C@@H](O[C@@H]1O[C@@H](C)[C@@H](O)[C@H](O)[C@@H]1O[C@H]1O[C@H](CO)[C@@H](O)[C@H](OC(N)=O)[C@@H]1O)c1c[nH]cn1 | 0.11 |
| Cc1c(N)nc([C@H](CC(N)=O)NC[C@H](N)C(N)=O)nc1C(=O)N[C@H](C(=O)N[C@H](C)[C@@H](O)[C@H](C)C(=O)N[C@H](C(=O)NCCc1nc(-c2nc(C(=O)NCCC(=N)N)cs2)cs1)[C@@H](C)O)[C@@H](O[C@@H]1O[C@@H](CO)[C@@H](O)[C@H](O)[C@@H]1O[C@H]1O[C@H](CO)[C@@H](O)[C@H](OC(N)=O)[C@@H]1O)c1c[nH]cn1 | 0.19 |

* * *

# system.name: Bleomycin hydrolase (Homo sapiens, UniProt Q13867)
# test.protocol: Substrate activity at recombinant human N-terminal His6-tagged BLMH expressed in Escherichia coli BL21(DE3) measured after 1 hr by HPLC-based Michaelis-Menten plot analysis
# Type: ADME

| monomer.sequence | Km (µM) |
| --- | --- |
| BLEOMYCIN | 592 |

* * *

# system.name: Bleomycin hydrolase (Homo sapiens, UniProt Q13867)
# Sequence (Q13867 whole entry): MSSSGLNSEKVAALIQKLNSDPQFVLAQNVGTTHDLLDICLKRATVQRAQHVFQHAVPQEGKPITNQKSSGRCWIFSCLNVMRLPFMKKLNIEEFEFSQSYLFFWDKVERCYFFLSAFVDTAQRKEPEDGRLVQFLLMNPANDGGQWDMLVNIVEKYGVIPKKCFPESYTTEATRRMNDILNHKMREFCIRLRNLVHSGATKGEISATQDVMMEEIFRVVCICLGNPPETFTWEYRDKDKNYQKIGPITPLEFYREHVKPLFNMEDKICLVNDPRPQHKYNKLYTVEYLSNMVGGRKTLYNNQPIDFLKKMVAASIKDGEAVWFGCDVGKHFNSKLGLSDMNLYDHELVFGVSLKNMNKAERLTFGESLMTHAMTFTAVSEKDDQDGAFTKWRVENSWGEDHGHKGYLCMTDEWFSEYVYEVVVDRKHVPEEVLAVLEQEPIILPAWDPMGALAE
# test.protocol: Substrate activity at recombinant human N-terminal His6-tagged BLMH expressed in Escherichia coli BL21(DE3) assessed as Kcat to Km ratio measured after 1 hr by HPLC-based Michaelis-Menten plot analysis relative to BLM B2
# Assay type: ADME
Recorded fold change (FC), one value per entry.
measurement.label: fold change (FC)

| compound | measurement.label | observed.result |
| --- | --- | --- |
| Cc1c(N)nc([C@H](CC(N)=O)NC[C@H](N)C(N)=O)nc1C(=O)N[C@H](C(=O)N[C@H](C)[C@@H](O)[C@H](C)C(=O)N[C@H](C(=O)NCCc1nc(-c2nc(C(=O)NCCC(=N)N)cs2)cs1)[C@@H](C)O)[C@@H](O[C@@H]1O[C@@H](C)[C@@H](O)[C@H](O)[C@@H]1O[C@H]1O[C@H](CO)[C@@H](O)[C@H](OC(N)=O)[C@@H]1O)c1c[nH]cn1 | fold change (FC) | 0.28 |
| Cc1c(N)nc([C@H](CC(N)=O)NC[C@H](N)C(N)=O)nc1C(=O)N[C@H](C(=O)N[C@H](C)[C@@H](O)CC(=O)N[C@H](C(=O)NCCc1nc(-c2nc(C(=O)NCCCC(N)CC(=O)NCCCNCCCCN)cs2)cs1)[C@@H](C)O)[C@@H](O[C@@H]1O[C@@H](CO)[C@@H](O)[C@H](O)[C@@H]1O[C@H]1O[C@H](CO)[C@@H](O)[C@H](OC(N)=O)[C@@H]1O)c1c[nH]cn1 (stereo partly drawn) | fold change (FC) | 0.06 |
| Cc1c(N)nc([C@H](CC(N)=O)NC[C@H](N)C(N)=O)nc1C(=O)N[C@H](C(=O)N[C@H](C)[C@@H](O)CC(=O)N[C@H](C(=O)NCCc1nc(-c2nc(C(=O)NCCCC(N)CC(=O)NCCCNCCCCN)cs2)cs1)[C@@H](C)O)[C@@H](O[C@@H]1O[C@@H](C)[C@@H](O)[C@H](O)[C@@H]1O[C@H]1O[C@H](CO)[C@@H](O)[C@H](OC(N)=O)[C@@H]1O)c1c[nH]cn1 (stereo partly drawn) | fold change (FC) | 0.06 |
